Each recorded value in this set is attributed to ChEMBL document CHEMBL2057071.

Target Or System: Muscarinic acetylcholine receptor M1 (Homo sapiens)
Sequence (P11229 whole entry): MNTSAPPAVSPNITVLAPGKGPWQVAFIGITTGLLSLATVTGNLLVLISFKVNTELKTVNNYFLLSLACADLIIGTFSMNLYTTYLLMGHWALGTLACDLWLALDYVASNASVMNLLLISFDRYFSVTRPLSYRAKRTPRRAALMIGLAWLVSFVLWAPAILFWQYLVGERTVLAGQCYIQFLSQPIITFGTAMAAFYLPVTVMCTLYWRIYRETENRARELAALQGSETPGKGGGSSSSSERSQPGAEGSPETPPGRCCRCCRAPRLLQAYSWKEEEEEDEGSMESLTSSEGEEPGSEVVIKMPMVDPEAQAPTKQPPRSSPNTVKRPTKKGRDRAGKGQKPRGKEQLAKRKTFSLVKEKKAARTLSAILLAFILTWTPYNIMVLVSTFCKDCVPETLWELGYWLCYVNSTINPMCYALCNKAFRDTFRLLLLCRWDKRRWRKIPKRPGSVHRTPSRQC
Assay Summary: Agonist activity at human M1 receptor expressed in CHO-K1 cells assessed as calcium mobilization for 6 mins by Calcium4-based staining
Measured Quantity: EC50 (nM)

Line Notation	Target Or System	EC50 / nM
O=C1COc2ccccc2N1CCCN1CCC(n2c(=O)[nH]c3cc(F)ccc32)CC1	Muscarinic acetylcholine receptor M1 (Homo sapiens)	66

(A) O=C1COc2ccccc2N1CCCN1CCC(n2c(=O)[nH]c3ccccc32)CC1
(B) O=C1COc2ccccc2N1CCCN1CCC(n2c(=O)[nH]c3ccc(F)cc32)CC1
(C) O=C1COc2ccccc2N1CCCN1CCC(n2c(=O)[nH]c3cccnc32)CC1
(D) O=C1COc2ccccc2N1CCCN1CCC(n2c(=O)[nH]c3c(F)cccc32)CC1
Query: Rank the items in ascending order with respect to EC50. Return value: ordered labels per request.
Response: B, A, D, C
(B: 44 nM, A: 73 nM, D: 110 nM, C: 1700 nM)
